Quick reference: CRF1R Emax % of the listed items.
Target of assay: CRF1R
Protocol details: cell-based or functional assay
Ends that are not written are not given here.
The answer is to be given in %; state only the numeric part.

Binder | Unit tag | CRF1R Emax %
ZGPPISIDLPFQLLRKAIEIEKQEKEKQQAANNALLLDTI (C-terminal amide) [SEQ ID NO 365] | % | 21
ZGPPISIDLPFFLLRKVIEIEKQEKEKQQAANNALLLDTI (C-terminal amide) [SEQ ID NO 316] | % | 92.3
ZGPPISIDLPIALLRKMIEIEKQEKEKQQAANNRLLLDTI (C-terminal amide) [SEQ ID NO 306] | % | 97.7
ZGPPISIDVPFQLLRKMIEIEKQEKEKQQAANNRLLLDTI (C-terminal amide) [SEQ ID NO 256] | % | 100
DNPSLSIDLPLILLRTLLELARTQSQRERAEQNARIFARV-NH2 [SEQ ID NO 330] | % | 86.8

What measured CRF1R Emax % goes with DNPSLSIDLPLLLLRTLLELEKTQSQRERAEQNARIFARV-NH2 [SEQ ID NO 341] ?
82.3

Dear colleague, I am looking for the recorded CRF1R Emax % of the following binder: NDDPPISIDLPFFLLRNMIEMARIENEREQAGLNAKYLAEV-NH2 [SEQ ID NO 264]
100

Quick one: CRF1R Emax % of ZGPPISIDLPQILLRKMIEIEKQEKEKQQAANNARLLARI (C-terminal amide) [SEQ ID NO 285] ?
11.1

Please give the measured CRF1R Emax % for this binder: ZGPPISIDLPFQLLRKIIEIEKQEKEKQQAANNALLLATI (C-terminal amide) [SEQ ID NO 362]
100

Record request: CRF1R Emax % value, item ZGPPISIDLPQYLLRKMIEIEKQEKEKQQAANNALLLATI (C-terminal amide) [SEQ ID NO 227]
18

I'd like to know its CRF1R Emax %. The binder in question is ZGPPISIDLPFQLLRKVIEIEKQEKEKQQAANNAHLLAHI (C-terminal amide) [SEQ ID NO 277]
39.9

Given the entry ZGPPISIDLPIYLLRKMIEIEKQEKEKQQAANNALLLATI (C-terminal amide) [SEQ ID NO 237] , report its measured CRF1R Emax %.
18

Given ZGPPISIDLPYHLLRKMIEIEKQEKEKQQAANNALLLAT (C-terminal amide) [SEQ ID NO 315] , state its recorded CRF1R Emax %.
100
